Origin of the recorded values: patent US6967212B2

ASSAYED_SYSTEM: human PPARα ligand binding domain (Homo sapiens)
Sequence (Q07869 239-466 limits assumed): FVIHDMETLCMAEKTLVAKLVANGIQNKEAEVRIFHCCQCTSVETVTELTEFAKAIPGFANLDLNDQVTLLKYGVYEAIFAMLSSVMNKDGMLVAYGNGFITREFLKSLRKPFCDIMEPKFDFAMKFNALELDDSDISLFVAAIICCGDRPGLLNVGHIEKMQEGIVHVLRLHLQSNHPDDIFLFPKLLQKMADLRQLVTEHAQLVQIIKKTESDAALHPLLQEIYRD
ASSAY_READOUT: pIC50
Just so you know, pIC50 here is -log10 of the concentration in molar units; reply with that number alone.

Entry CCCCCCCN(CCc1ccc(O[C@@](C)(CC)C(=O)O)cc1)C(=O)Nc1ccc(F)cc1F [GW-2331, reference compound] , system human PPARα ligand binding domain (Homo sapiens): what pIC50 was measured?
6.39
